- Test system: Hs-578T
- experiment description: NCI tumour cell line growth inhibition, 48 h
Active and inactive are the calls of the source. No stated cut-off is given here; in the data, active = GI50 up to about 1.1 µM and inactive = higher.
Catalogue of GI50 values

As a guide, the following entries are already answered.
[
  {
    "compound": "COc1ccc2nc3ccc(OC)cc3c([S+]([O-])CCCl)c2c1 (stereo unspecified)",
    "GI50": "2.24 µM (inactive)"
  },
  {
    "compound": "Cc1ccc2[nH]c3[nH]c(=S)[nH]c(=O)c3c2c1",
    "GI50": "> 100 µM (inactive)"
  },
  {
    "compound": "O=C(c1cc2ccccc2[nH]1)N1C2CCC1CN(CCOC(c1ccc(F)cc1)c1ccc(F)cc1)CC2 (stereo unspecified)",
    "GI50": "> 100 µM (inactive)"
  },
  {
    "compound": "O=C(O)c1cc2ccccc2c(S(=O)(=O)O)c1O",
    "GI50": "> 100 µM (inactive)"
  },
  {
    "compound": "N#CCC1C2CC3C(C2=O)C13 (stereo unspecified)",
    "GI50": "> 100 µM (inactive)"
  }
]

Please examine the following record next.
GI50 in this record for COc1cc(Oc2nc3c(N)cc(C(F)(F)F)cc3nc2-c2ccccc2)cc(OC)c1OC : 3.69 µM (inactive)

----------
- Tested on: HT-29
- experiment description: NCI tumour cell line growth inhibition, 48 h
The source made the active and inactive calls. No stated cut-off is given here; in the data, active = GI50 up to about 1.1 µM and inactive = higher.
Pick from true = active, false = inactive when you respond.

[
  {
    "compound": "COc1cc2c(cc1OC)C1c3ccccc3CCN1CCC2.[O-][Cl+3]([O-])([O-])O (stereo not given)",
    "group": "false"
  },
  {
    "compound": "C[N+](C)(C)CCOP(=O)(O)OP(=O)([O-])OCC1CCC(n2ccc(N)nc2=O)O1 (stereo not given)",
    "group": "false"
  },
  {
    "compound": "C[C@]12CC[C@H](O)C=C1CC[C@@H]1[C@@H]2CC[C@]2(C)C(c3ccc(=O)oc3)CC[C@]12O (stereo not given in full)",
    "group": "true"
  }
]

Any idea what this test logged for Cc1ccc([N+](=O)[O-])c2c(NCC(O)CO)ccnc12 (stereo not given) ?
false

Any idea what this test logged for Nc1c(C(=O)c2ccc(Cl)cc2)[nH]c(NCc2ccccc2)c1C(=S)Nc1ccccc1 ?
false

Any idea what this test logged for O=CN/C=C/c1cccc(O)c1 ?
false

----------
- System: MOLT-4
- experiment description: NCI tumour cell line growth inhibition, 48 h
Activity calls are given as the source filed them. No stated cut-off is given here; in the data, active = GI50 up to about 1.1 µM and inactive = higher.
Catalogue of GI50 values

As a guide, the following entries are already answered.
[
  {
    "compound": "COC(=O)Cc1c(C2=Nc3ccccc3C2(O)CC(=O)OC)[nH]c2ccccc12 (stereo unspecified)",
    "GI50": "19.7 µM (inactive)"
  },
  {
    "compound": "Cc1cccc(Nc2cn(CCOc3ccccc3)c(=O)[nH]c2=O)c1",
    "GI50": "36.9 µM (inactive)"
  },
  {
    "compound": "COc1ccc(NC(C)=O)cc1N1C(=O)/C(=C\\c2cccc(Oc3ccccc3)c2)S(=O)(=O)C1c1ccccc1 (stereo unspecified)",
    "GI50": "16.9 µM (inactive)"
  },
  {
    "compound": "O=[N+]([O-])c1ccc2nc3c(nc2c1)-c1c2ccccc2cc2cccc-3c12",
    "GI50": "2.17 µM (inactive)"
  },
  {
    "compound": "COc1cc2c(OC)cc1CSCc1sc(C)c(c1Br)CSC2",
    "GI50": "> 100 µM (inactive)"
  },
  {
    "compound": "COC(=O)c1ccc(C(=O)OC)c2nc3cc(C)ccc3nc12",
    "GI50": "> 100 µM (inactive)"
  }
]

GI50 in this record for O=[N+]([O-])C(Cl)C(Cl)C(Cl)=C(Cl)Cl (stereo unspecified) : 19.1 µM (inactive)

GI50 in this record for O=C(O)c1cc2ccccc2c(S(=O)(=O)O)c1O : > 100 µM (inactive)

GI50 in this record for CC(=O)c1sc2c(c1OC(=O)c1cccs1)c(=O)n(-c1ccccc1)c(=S)n2-c1ccccc1 : 20.3 µM (inactive)

GI50 in this record for C[C@]12CCC[C@H](OC=O)C1(O)C[C@H](C(=O)O)CC2 (stereo partly specified) : > 100 µM (inactive)

GI50 in this record for C=CCN(N=O)C(=O)N(CCC)CCCC(NC(C)=O)C(=O)NCc1ccccc1 (stereo unspecified) : > 100 µM (inactive)
